meta.source: ChEMBL document CHEMBL5033992

assay: AUC (0 to inf) in ICR mouse at 10 mg/kg, po measured up to 24 hrs by LC-MS/MS analysis; format: ADME, organism-based; parameters: route oral, dose 10 mg/kg, time <=24; conditions: in vivo
Measurement kind: AUC(0-inf) (ng·h/mL)

{"Given smiles": "CCN1CCN(c2cc(Nc3cc(C)nn3C(=O)OC(C)(C)C)nc(N[C@H]3CCN(C(=O)c4ccc(Cl)cc4F)C3)n2)CC1", "AUC(0-inf), ng·h/mL": 1130}
{"Given smiles": "CCC(=O)n1nc(C)cc1Nc1cc(N2CCN(CC)CC2)nc(N[C@H]2CCN(C(=O)c3ccc(Cl)cc3F)C2)n1", "AUC(0-inf), ng·h/mL": 4400}
{"Given smiles": "CCOC(=O)n1nc(Nc2cc(N3CCN(CC)CC3)nc(N[C@H]3CCN(C(=O)c4ccc(Cl)cc4F)C3)n2)cc1C", "AUC(0-inf), ng·h/mL": 961}
{"Given smiles": "CCOC(=O)n1nc(C)cc1Nc1cc(N2CCN(CC)CC2)nc(N[C@H]2CCN(C(=O)c3ccc(Cl)cc3F)C2)n1", "AUC(0-inf), ng·h/mL": 4050}

[P] CCN1CCN(c2cc(Nc3cc(C)[nH]n3)nc(N[C@H]3CCN(C(=O)c4ccc(Cl)cc4F)C3)n2)CC1
[Q] CCN1CCN(c2cc(Nc3cc(C)nn3C(=O)C(C)(C)C)nc(N[C@H]3CCN(C(=O)c4ccc(Cl)cc4F)C3)n2)CC1
[R] CCC(=O)n1nc(Nc2cc(N3CCN(CC)CC3)nc(N[C@H]3CCN(C(=O)c4ccc(Cl)cc4F)C3)n2)cc1C
// ranking: key=AUC(0-inf), reverse=True # answer = labels listed in requested order
P, R, Q

====

assay: Half life in ICR mouse at 10 mg/kg, po measured up to 24 hrs by LC-MS/MS analysis; format: ADME, organism-based; details: in vivo
Measurement kind: half-life (h)

Would you please look over these solved cases?
{"Given smiles": "CCOC(=O)n1nc(Nc2cc(N3CCN(CC)CC3)nc(N[C@H]3CCN(C(=O)c4ccc(Cl)cc4F)C3)n2)cc1C", "Readout number": 2.3}
{"Given smiles": "CCC(=O)n1nc(Nc2cc(N3CCN(CC)CC3)nc(N[C@H]3CCN(C(=O)c4ccc(Cl)cc4F)C3)n2)cc1C", "Readout number": 1.9}

[A] CCC(=O)n1nc(C)cc1Nc1cc(N2CCN(CC)CC2)nc(N[C@H]2CCN(C(=O)c3ccc(Cl)cc3F)C2)n1
[B] CCN1CCN(c2cc(Nc3cc(C)[nH]n3)nc(N[C@H]3CCN(C(=O)c4ccc(Cl)cc4F)C3)n2)CC1
Pick one: A or B . Which has the bigger half-life number? In your reply, give the label of the chosen option.
A
(A: 2.7 h, B: 1.6 h)

====

test: Half life in ICR mouse at 2 mg/kg, iv measured up to 24 hrs by LC-MS/MS analysis; type: ADME, organism-based; conditions: in vivo
Measurement kind: half-life (h)

Would you please look over these solved cases?
{"Given smiles": "CCN1CCN(c2cc(Nc3cc(C)nn3C(=O)OC(C)(C)C)nc(N[C@H]3CCN(C(=O)c4ccc(Cl)cc4F)C3)n2)CC1", "Measurement kind": "half-life", "Readout number": 5}
{"Given smiles": "CCOC(=O)n1nc(C)cc1Nc1cc(N2CCN(CC)CC2)nc(N[C@H]2CCN(C(=O)c3ccc(Cl)cc3F)C2)n1", "Measurement kind": "half-life", "Readout number": 5.8}
{"Given smiles": "CCN1CCN(c2cc(Nc3cc(C)nn3C(=O)C(C)(C)C)nc(N[C@H]3CCN(C(=O)c4ccc(Cl)cc4F)C3)n2)CC1", "Measurement kind": "half-life", "Readout number": 5.5}
{"Given smiles": "CCN1CCN(c2cc(Nc3cc(C)[nH]n3)nc(N[C@H]3CCN(C(=O)c4ccc(Cl)cc4F)C3)n2)CC1", "Measurement kind": "half-life", "Readout number": 4}

[A] CCC(=O)n1nc(C)cc1Nc1cc(N2CCN(CC)CC2)nc(N[C@H]2CCN(C(=O)c3ccc(Cl)cc3F)C2)n1
[B] CCC(=O)n1nc(Nc2cc(N3CCN(CC)CC3)nc(N[C@H]3CCN(C(=O)c4ccc(Cl)cc4F)C3)n2)cc1C
Please indicate which item has the smaller measured half-life: A versus B In your reply, give the label of the chosen option.
B

====

assay: Clearance in ICR mouse at 2 mg/kg, iv measured up to 24 hrs by LC-MS/MS analysis; assay type: ADME, organism-based; conditions: in vivo
Measurement kind: clearance (mL/min/kg)

{"Given smiles": "CCN1CCN(c2cc(Nc3cc(C)nn3C(=O)OC(C)(C)C)nc(N[C@H]3CCN(C(=O)c4ccc(Cl)cc4F)C3)n2)CC1", "Unit label": "mL/min/kg", "clearance": 38}

[A] CCN1CCN(c2cc(Nc3cc(C)[nH]n3)nc(N[C@H]3CCN(C(=O)c4ccc(Cl)cc4F)C3)n2)CC1
[B] CCC(=O)n1nc(C)cc1Nc1cc(N2CCN(CC)CC2)nc(N[C@H]2CCN(C(=O)c3ccc(Cl)cc3F)C2)n1
Pick one: A or B . Which has the bigger clearance number? In your reply, give the label of the chosen option.
A
(A: 53.7 mL/min/kg, B: 21.3 mL/min/kg)

[a] CCOC(=O)n1nc(C)cc1Nc1cc(N2CCN(CC)CC2)nc(N[C@H]2CCN(C(=O)c3ccc(Cl)cc3F)C2)n1
[b] CCN1CCN(c2cc(Nc3cc(C)nn3C(=O)C(C)(C)C)nc(N[C@H]3CCN(C(=O)c4ccc(Cl)cc4F)C3)n2)CC1
Pick one: a or b . Which has the bigger clearance number? In your reply, give the label of the chosen option.
b

====

assay: AUC (0 to inf) in ICR mouse at 2 mg/kg, iv measured up to 24 hrs by LC-MS/MS analysis; type: ADME, organism-based; parameters: route intravenous, dose 2 mg/kg, time <=24; conditions: ICR, in vivo
Measurement kind: AUC(0-inf) (ng·h/mL)

Would you please look over these solved cases?
{"Given smiles": "CCN1CCN(c2cc(Nc3cc(C)nn3C(=O)OC(C)(C)C)nc(N[C@H]3CCN(C(=O)c4ccc(Cl)cc4F)C3)n2)CC1", "AUC(0-inf) (ng·h/mL)": 780}
{"Given smiles": "CCOC(=O)n1nc(C)cc1Nc1cc(N2CCN(CC)CC2)nc(N[C@H]2CCN(C(=O)c3ccc(Cl)cc3F)C2)n1", "AUC(0-inf) (ng·h/mL)": 1480}

[1] CCC(=O)n1nc(C)cc1Nc1cc(N2CCN(CC)CC2)nc(N[C@H]2CCN(C(=O)c3ccc(Cl)cc3F)C2)n1
[2] CCN1CCN(c2cc(Nc3cc(C)[nH]n3)nc(N[C@H]3CCN(C(=O)c4ccc(Cl)cc4F)C3)n2)CC1
[3] CCN1CCN(c2cc(Nc3cc(C)nn3C(=O)C(C)(C)C)nc(N[C@H]3CCN(C(=O)c4ccc(Cl)cc4F)C3)n2)CC1
In this exercise, place the 3 compounds in ascending sequence of their recorded AUC(0-inf). # answer = labels listed in requested order
3, 2, 1

====

test: Oral bioavailability in ICR mouse at 10 mg/kg measured up to 24 hrs by LC-MS/MS analysis; type: ADME, organism-based; details: in vivo
Measurement kind: bioavailability (%)

Would you please look over these solved cases?
{"Given smiles": "CCN1CCN(c2cc(Nc3cc(C)nn3C(=O)OC(C)(C)C)nc(N[C@H]3CCN(C(=O)c4ccc(Cl)cc4F)C3)n2)CC1", "bioavailability (%)": 28.9}
{"Given smiles": "CCN1CCN(c2cc(Nc3cc(C)nn3C(=O)C(C)(C)C)nc(N[C@H]3CCN(C(=O)c4ccc(Cl)cc4F)C3)n2)CC1", "bioavailability (%)": 7.8}

[P] CCN1CCN(c2cc(Nc3cc(C)[nH]n3)nc(N[C@H]3CCN(C(=O)c4ccc(Cl)cc4F)C3)n2)CC1
[Q] CCOC(=O)n1nc(C)cc1Nc1cc(N2CCN(CC)CC2)nc(N[C@H]2CCN(C(=O)c3ccc(Cl)cc3F)C2)n1
Please indicate which item has the smaller measured bioavailability: P versus Q In your reply, give the label of the chosen option.
P

====

assay: Tmax in ICR mouse at 10 mg/kg, po measured up to 24 hrs by LC-MS/MS analysis; type: ADME, organism-based; details: in vivo
Measurement kind: Tmax (min)

{"Given smiles": "CCOC(=O)n1nc(Nc2cc(N3CCN(CC)CC3)nc(N[C@H]3CCN(C(=O)c4ccc(Cl)cc4F)C3)n2)cc1C", "Measurement kind": "Tmax", "Readout number": 24}
{"Given smiles": "CCN1CCN(c2cc(Nc3cc(C)nn3C(=O)C(C)(C)C)nc(N[C@H]3CCN(C(=O)c4ccc(Cl)cc4F)C3)n2)CC1", "Measurement kind": "Tmax", "Readout number": 84}
{"Given smiles": "CCC(=O)n1nc(C)cc1Nc1cc(N2CCN(CC)CC2)nc(N[C@H]2CCN(C(=O)c3ccc(Cl)cc3F)C2)n1", "Measurement kind": "Tmax", "Readout number": 18}
{"Given smiles": "CCN1CCN(c2cc(Nc3cc(C)[nH]n3)nc(N[C@H]3CCN(C(=O)c4ccc(Cl)cc4F)C3)n2)CC1", "Measurement kind": "Tmax", "Readout number": 60}
{"Given smiles": "CCC(=O)n1nc(Nc2cc(N3CCN(CC)CC3)nc(N[C@H]3CCN(C(=O)c4ccc(Cl)cc4F)C3)n2)cc1C", "Measurement kind": "Tmax", "Readout number": 24}

[a] CCN1CCN(c2cc(Nc3cc(C)nn3C(=O)OC(C)(C)C)nc(N[C@H]3CCN(C(=O)c4ccc(Cl)cc4F)C3)n2)CC1
[b] CCOC(=O)n1nc(C)cc1Nc1cc(N2CCN(CC)CC2)nc(N[C@H]2CCN(C(=O)c3ccc(Cl)cc3F)C2)n1
Please indicate which item has the smaller measured Tmax: a versus b In your reply, give the label of the chosen option.
b
(b: 18 min, a: 30 min)
